Assay: chemical genetic growth profiling, strain panel (AID 1159580);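 note: tested at 20 µM; growth read once vehicle control cultures reached saturation at 30 °C; 1 = growth at the plate median or of vehicle wells; lower values mean less growth of the strain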
Conditions: S. cerevisiae deletion strains, growth OD, locus YNL183C, strain NPR1, active compounds read low
Out of some 5,500 compounds screened, about 2,000 (36%) were called active. Another 18% or so got no clear call; they are omitted. This is one part of the list.
Assay readout: normalized growth
Quick one: just the number, no unit, thanks!

Prompt line: Request the reported normalized growth associated with `CC1(C)S[C@@H]2[C@H](NC(=O)COc3ccccc3)C(=O)N2[C@H]1C(=O)O`
Response line: 0.937

Prompt line: Request the reported normalized growth associated with `Oc1ccc(-n2nnnc2SCc2ccc(OC(F)(F)F)cc2)cc1`
Response line: 0.635

Prompt line: Request the reported normalized growth associated with `COc1c2occc2cc2ccc(=O)oc12`
Response line: 0.971

Prompt line: Request the reported normalized growth associated with C[C@]12C=CC(=O)C=C1CCC1C2CC[C@]2(C)C(=O)CCC12 (some centres undefined)
Response line: 0.897

Values were extracted from PubChem BioAssay AID1159580.
